Test system: Klebsiella aerogenes DSM 30053
assay.procedure: fold change of Histamine concentration vs plate DMSO controls (fold change (ratio)); higher = more amine produced, active = hit call of the paper (significant change in both replicates, either direction);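 for the amine columns active = adjusted P below 0.05 in both replicates with a change the same way and a mean fold change under 0.8 or over 1.25; inactive = the rest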
condition.info: incubation time: 27 h, anaerobic, 37 °C
Where a name gives a salt, the structure may show the parent alone.
Classes used: label 1 = active, label 0 = inactive

molecule	assigned.label
COCC(=O)O[C@]1(CCN(C)CCCc2nc3ccccc3[nH]2)CCc2cc(F)ccc2[C@@H]1C(C)C [Mibefradil hydrochloride] (20 µM)	label 0
C[N+](C)(CCOc1ccccc1)Cc1ccccc1.O=C([O-])c1cc2ccccc2cc1O [Bephenium hydroxynaphthoate] (20 µM)	label 0
CC1=C(/C=C/C(C)=C/C=C/C(C)=C\C(=O)O)C(C)(C)CCC1 [Isotretinoin] (20 µM)	label 0
CO[C@@H]1[C@@H](OC(N)=O)[C@@H](O)[C@H](Oc2ccc3c(O)c(NC(=O)c4ccc(O)c(CC=C(C)C)c4)c(=O)oc3c2C)OC1(C)C [Novobiocin sodium salt] (20 µM)	label 0
CCCCCCNC(=O)n1cc(F)c(=O)[nH]c1=O [Carmofur] (20 µM)	label 1
C[C@H](CCC(=O)O)[C@H]1CC[C@H]2[C@@H]3C(=O)C[C@@H]4CC(=O)CC[C@]4(C)[C@H]3CC(=O)[C@]12C [Dehydrocholic acid] (20 µM)	label 0

* * *

System: Klebsiella aerogenes DSM 30053
assay.procedure: growth (OD595) fold change vs plate DMSO controls (fold change (ratio)); higher = more growth
condition.info: incubation time: 27 h, anaerobic, 37 °C
Structures can show the parent of a compound that is named as a salt.
readout.label: growth

> print(dat)
                                   compound  recorded.value
1  CCCCC(O)c1ccccc1 (stereo not drawn) [Fenipentol] (20 µM)            1.03
2  CC(C)NCC(O)c1ccc(NS(C)(=O)=O)cc1 (stereo not drawn) [Sotalol hydrochloride] (20 µM)             1.2
3   Oc1ncnc2[nH]ncc12 [Allopurinol] (20 µM)           0.974
4  Nc1nc(NC2CC2)c2ncn([C@H]3C=C[C@@H](CO)C3)c2n1 [Abacavir sulfate] (20 µM)            1.02
5  C[C@H](CCC(=O)O)[C@H]1CC[C@H]2[C@@H]3CC[C@@H]4C[C@H](O)CC[C@]4(C)[C@H]3CC[C@]12C [Lithocholic acid] (20 µM)            1.19
6  N[C@@H](C(=O)N[C@@H]1C(=O)N2C(C(=O)O)=C(Cl)CC[C@H]12)c1ccccc1 [Loracarbef] (20 µM)            1.13
7  COc1ccccc1N1CCN(CC(O)COc2cccc3ccccc23)CC1 (stereo not drawn) [Naftopidil dihydrochloride] (20 µM)            1.17
8  N=C(N)NC(=O)c1nc(Cl)c(N)nc1N [Amiloride hydrochloride dihydrate] (20 µM)           0.984

* * *

System: Klebsiella aerogenes DSM 30053
assay.procedure: fold change of Putrescine concentration vs plate DMSO controls (fold change (ratio)); higher = more amine produced, active = hit call of the paper (significant change in both replicates, either direction)
condition.info: incubation time: 27 h, anaerobic, 37 °C
Structures can show the parent of a compound that is named as a salt.
// fold change of Putrescine concentration lookup, one value per entry
readout.label: fold change of Putrescine concentration

compound	readout.label	recorded.value
O=C(Oc1ccccc1)c1ccccc1O [Phenyl salicylate] (20 µM)	fold change of Putrescine concentration	0.942
CO[C@@]1(NC(=O)Cc2cccs2)C(=O)N2C(C(=O)O)=C(COC(N)=O)CS[C@@H]21 [Cefoxitin sodium salt] (20 µM)	fold change of Putrescine concentration	1.09
COc1cc(C(=O)OCCCN2CCCN(CCCOC(=O)c3cc(OC)c(OC)c(OC)c3)CC2)cc(OC)c1OC [Dilazep dihydrochloride] (20 µM)	fold change of Putrescine concentration	0.937
OC[C@H]1O[C@@H](O[C@H]2[C@H](O)[C@@H](O)[C@H](O)O[C@@H]2CO)[C@H](O)[C@@H](O)[C@H]1O [Lactose] (50 µM)	fold change of Putrescine concentration	1.01
CCCCCCNC(=O)n1cc(F)c(=O)[nH]c1=O [Carmofur] (20 µM)	fold change of Putrescine concentration	0.936
NS(=O)(=O)c1cc2c(cc1Cl)N=CNS2(=O)=O [Chlorothiazide] (20 µM)	fold change of Putrescine concentration	1.03
C[C@]12CC[C@@H]3c4ccc(O)cc4C[C@@H](CCCCCCCCC[S+]([O-])CCCC(F)(F)C(F)(F)F)[C@H]3[C@@H]1CC[C@@H]2O (some centres not stated) [Fulvestrant] (20 µM)	fold change of Putrescine concentration	0.979

* * *

System: Klebsiella aerogenes DSM 30053
assay.procedure: fold change of Putrescine concentration vs plate DMSO controls (fold change (ratio)); higher = more amine produced, active = hit call of the paper (significant change in both replicates, either direction)
condition.info: incubation time: 27 h, anaerobic, 37 °C
Where a name gives a salt, the structure may show the parent alone.

compound	fold change of Putrescine concentration
CC(C(=O)O)c1ccc(-c2ccccc2)c(F)c1 (configuration not stated) [Flurbiprofen] (20 µM)	1.03
CN(C)CCOC(c1ccccc1)c1ccccc1.Cn1c(=O)c2[nH]c(Cl)nc2n(C)c1=O [Dimenhydrinate] (20 µM)	1.01
COc1ccc(CCC(=O)c2c(O)cc(O[C@@H]3O[C@H](CO)[C@@H](O)[C@H](O)[C@H]3O[C@@H]3O[C@@H](C)[C@H](O)[C@@H](O)[C@H]3O)cc2O)cc1O [Neohesperidin Dihydrochalcone (Nhdc)] (50 µM)	1.02
O=C1C(=O)c2ccccc2C(O)=C1C1CCC(c2ccc(Cl)cc2)CC1 (configuration not stated) [Atovaquone] (20 µM)	1.03
CCCC(=O)OCOC(=O)C1=C(C)NC(C)=C(C(=O)OC)C1c1cccc(Cl)c1Cl (configuration not stated) [Clevidipine] (20 µM)	1.01
CNCCc1ccccn1 [Betahistine mesylate] (20 µM)	0.995
C[N+]1(C)CCC(OC(=O)C(O)(c2ccccc2)C2CCCC2)C1 (configuration not stated) [Glycopyrrolate bromide] (20 µM)	1

* * *

Test system: Klebsiella aerogenes DSM 30053
assay.procedure: fold change of Cadaverine concentration vs plate DMSO controls (fold change (ratio)); higher = more amine produced, active = hit call of the paper (significant change in both replicates, either direction)
condition.info: incubation time: 27 h, anaerobic, 37 °C
Counter-ions that a name gives are not always drawn.

molecule	fold change of Cadaverine concentration
CC[N+](CC)(CC(=O)Nc1c(C)cccc1C)Cc1ccccc1 [Denatonium benzoate] (20 µM)	1 (inactive)
COc1cc(C(=O)NS(=O)(=O)c2ccccc2C)ccc1Cc1cn(C)c2ccc(NC(=O)OC3CCCC3)cc12 [Zafirlukast] (20 µM)	1.01 (inactive)
CC1=C(C)C(=O)C(C(CCCCCC(=O)O)c2ccccc2)=C(C)C1=O (stereo not given) [Seratrodast] (20 µM)	1.01 (inactive)
C1N2CN3CN1CN(C2)C3 [Methenamine] (20 µM)	0.993 (inactive)
O=C1C(=O)c2ccccc2C(O)=C1C1CCC(c2ccc(Cl)cc2)CC1 (stereo not given) [Atovaquone] (20 µM)	1 (inactive)
COC(=O)[C@@H]1[C@H]2C[C@H]3c4[nH]c5ccccc5c4CCN3C[C@@H]2CC[C@@H]1O [Yohimbine hydrochloride] (20 µM)	1.02 (inactive)
CCCCC(=O)O[C@H]1CC[C@H]2[C@@H]3CCc4cc(O)ccc4[C@H]3CC[C@]12C [Estradiol Valerate] (20 µM)	1.05 (inactive)
Cc1cc(C2CCCCC2)n(O)c(=O)c1 [Ciclopirox ethanolamine] (20 µM)	1 (inactive)
Cc1ncc([N+](=O)[O-])n1CCO [Metronidazole] (20 µM)	1.1 (inactive)
C#C[C@]1(O)CC[C@H]2[C@@H]3CCC4=C(CCC(=O)C4)[C@H]3CC[C@@]21C [Norethynodrel] (20 µM)	1.01 (inactive)
COC(=O)[C@H](Cc1ccccc1)NC(=O)[C@@H](N)CC(=O)O [Aspartame] (50 µM)	0.99 (inactive)
CN(C)CCOC(c1ccccc1)c1ccccc1.Cn1c(=O)c2[nH]c(Cl)nc2n(C)c1=O [Dimenhydrinate] (20 µM)	0.985 (inactive)
COC(=O)N/N=C/c1c[n+]([O-])c2ccccc2[n+]1[O-] [Carbadox] (20 µM)	0.983 (inactive)
CC1=C(CC(=O)O)c2cc(F)ccc2/C1=C\c1ccc([S+](C)[O-])cc1 (stereo not given) [Sulindac] (20 µM)	1.02 (inactive)
CCC(=O)O[C@]1(C(=O)SCF)[C@H](C)C[C@H]2[C@@H]3C[C@H](F)C4=CC(=O)C=C[C@]4(C)[C@@]3(F)[C@@H](O)C[C@@]21C [Fluticasone propionate] (20 µM)	1.01 (inactive)

* * *

Tested on: Klebsiella aerogenes DSM 30053
assay.procedure: fold change of Putrescine concentration vs plate DMSO controls (fold change (ratio)); higher = more amine produced, active = hit call of the paper (significant change in both replicates, either direction)
condition.info: incubation time: 27 h, anaerobic, 37 °C
Where a name gives a salt, the structure may show the parent alone.
Assign Fulfilled whenever fold change of Putrescine concentration does not fall below 1; assign Not fulfilled whenever it does.

compound	test.target	assigned.label
CCCCC(=O)O[C@H]1CC[C@H]2[C@@H]3CCc4cc(O)ccc4[C@H]3CC[C@]12C [Estradiol Valerate] (20 µM)	Klebsiella aerogenes DSM 30053	Not fulfilled
CC(NCCC(c1ccccc1)c1ccccc1)c1ccccc1 (stereo not given) [Fendiline hydrochloride] (20 µM)	Klebsiella aerogenes DSM 30053	Fulfilled
CN1CCN(CC(=O)N2c3ccccc3C(=O)Nc3cccnc32)CC1 [Pirenzepine dihydrochloride] (20 µM)	Klebsiella aerogenes DSM 30053	Fulfilled
C=C(NC(=O)C(=C)NC(=O)c1csc(C2=N[C@@H]3c4csc(n4)[C@H]4NC(=O)c5csc(n5)[C@H]([C@](C)(O)[C@@H](C)O)NC(=O)[C@H]5CSC(=N5)/C(=C/C)NC(=O)[C@H]([C@@H](C)O)NC(=O)c5csc(n5)[C@]3(CC2)NC(=O)[C@H](C)NC(=O)C(=C)NC(=O)[C@H](C)NC(=O)[C@H]([C@@H](C)CC)N[C@@H]2C=Cc3c([C@H](C)O)cc(nc3[C@H]2O)C(=O)O[C@@H]4C)n1)C(N)=O [Thiostrepton] (20 µM)	Klebsiella aerogenes DSM 30053	Fulfilled
OC[C@H]1O[C@H](O[C@H]2O[C@H](CO)[C@@H](O)[C@H](O)[C@H]2O)[C@H](O)[C@@H](O)[C@@H]1O [Trehalose] (50 µM)	Klebsiella aerogenes DSM 30053	Not fulfilled
